- TARGET ENTITY: T1, full length human DLL4 (human, UniProt Q9NR61 27-685)
- T1 construct: whole, on cells; also called native DLL4 expressed in HEK293 cells
- T1 sequence (Q9NR61 27-685): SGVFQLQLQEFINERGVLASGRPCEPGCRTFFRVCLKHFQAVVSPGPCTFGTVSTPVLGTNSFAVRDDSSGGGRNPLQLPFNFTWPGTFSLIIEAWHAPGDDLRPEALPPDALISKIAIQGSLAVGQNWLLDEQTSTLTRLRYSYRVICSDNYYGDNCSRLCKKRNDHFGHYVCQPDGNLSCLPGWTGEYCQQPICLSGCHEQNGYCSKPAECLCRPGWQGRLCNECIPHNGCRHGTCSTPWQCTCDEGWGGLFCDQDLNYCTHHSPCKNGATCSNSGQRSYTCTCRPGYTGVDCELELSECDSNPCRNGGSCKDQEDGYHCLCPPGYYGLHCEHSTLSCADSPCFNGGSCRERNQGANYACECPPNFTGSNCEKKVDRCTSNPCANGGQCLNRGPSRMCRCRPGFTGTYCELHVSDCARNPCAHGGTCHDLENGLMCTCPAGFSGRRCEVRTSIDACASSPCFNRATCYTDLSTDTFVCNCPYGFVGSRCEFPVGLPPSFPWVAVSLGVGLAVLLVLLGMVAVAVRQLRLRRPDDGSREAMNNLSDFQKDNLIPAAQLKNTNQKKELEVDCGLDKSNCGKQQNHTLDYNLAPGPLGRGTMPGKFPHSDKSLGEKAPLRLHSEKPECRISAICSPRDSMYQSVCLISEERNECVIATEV
- ASSAY COMMENT: FMAT competition, purified antibody vs Alexa-647 human Notch1/Fc, 293T cells with human DLL4
PARAMETER MEASURED: % inhibition at 16.7 nM (%)
Record the value in %, omitting the unit from your answer.

Asked: Endpoint output: % inhibition at 16.7 nM of 1E4 (antibody, IgG2, V domains shown, Fully human; also used where no isotype is printed) VH: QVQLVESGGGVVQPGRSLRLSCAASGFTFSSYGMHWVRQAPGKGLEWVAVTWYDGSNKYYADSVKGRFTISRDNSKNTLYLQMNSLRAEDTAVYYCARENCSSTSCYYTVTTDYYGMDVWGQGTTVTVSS VL: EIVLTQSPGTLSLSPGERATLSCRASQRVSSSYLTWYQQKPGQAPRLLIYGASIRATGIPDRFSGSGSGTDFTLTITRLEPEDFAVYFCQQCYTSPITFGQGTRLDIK . Value?
Given back: 120

Asked: Same again, this time with 21H3 (antibody, IgG4, V domains shown, Fully human; used for IgG4 rows and where no isotype is printed; also called 21H3 IgG4) VH: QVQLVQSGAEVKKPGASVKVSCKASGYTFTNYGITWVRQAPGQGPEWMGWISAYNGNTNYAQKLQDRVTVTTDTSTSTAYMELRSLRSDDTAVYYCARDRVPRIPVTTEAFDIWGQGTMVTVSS VL: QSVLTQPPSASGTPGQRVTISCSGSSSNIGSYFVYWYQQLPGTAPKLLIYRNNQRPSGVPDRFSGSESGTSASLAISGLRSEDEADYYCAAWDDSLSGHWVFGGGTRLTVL
Given back: 124

Asked: Same again, this time with 2H10 (antibody, IgG4, V domains shown, Fully human; used for IgG4 rows and where no isotype is printed; also called 2H10 IgG4) VH: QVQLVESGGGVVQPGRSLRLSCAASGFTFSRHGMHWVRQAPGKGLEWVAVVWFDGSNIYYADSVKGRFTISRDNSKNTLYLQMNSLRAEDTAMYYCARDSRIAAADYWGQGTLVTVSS VL: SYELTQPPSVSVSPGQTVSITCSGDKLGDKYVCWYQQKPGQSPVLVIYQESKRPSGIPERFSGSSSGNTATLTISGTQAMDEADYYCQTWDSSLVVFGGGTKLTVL
Given back: 111

Asked: Same again, this time with 1D4 (antibody, IgG4, V domains shown, Fully human XenoMouse antibody; also used where no isotype is printed) VH: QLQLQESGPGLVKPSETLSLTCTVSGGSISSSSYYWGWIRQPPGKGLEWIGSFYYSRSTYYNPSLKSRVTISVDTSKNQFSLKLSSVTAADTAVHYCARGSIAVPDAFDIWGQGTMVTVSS VL: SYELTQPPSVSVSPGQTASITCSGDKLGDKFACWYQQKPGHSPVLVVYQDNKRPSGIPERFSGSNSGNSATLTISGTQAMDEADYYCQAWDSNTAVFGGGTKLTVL
Given back: 123

Asked: Same again, this time with 9G8 (antibody, IgG4, V domains shown, Fully human; used for IgG4 rows and where no isotype is printed; also called 9G8 IgG4) VH: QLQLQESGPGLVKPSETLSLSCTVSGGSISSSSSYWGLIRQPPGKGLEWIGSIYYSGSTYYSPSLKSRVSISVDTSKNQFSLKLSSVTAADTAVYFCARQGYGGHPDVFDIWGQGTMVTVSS VL: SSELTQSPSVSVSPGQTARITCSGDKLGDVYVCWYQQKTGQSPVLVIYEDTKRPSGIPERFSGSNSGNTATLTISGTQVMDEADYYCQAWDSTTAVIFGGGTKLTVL
Given back: 121

Asked: Same again, this time with 4B4 (antibody, IgG4, V domains shown, Fully human; used for IgG4 rows and where no isotype is printed; also called 4B4 IgG4; 4B4.1) VH: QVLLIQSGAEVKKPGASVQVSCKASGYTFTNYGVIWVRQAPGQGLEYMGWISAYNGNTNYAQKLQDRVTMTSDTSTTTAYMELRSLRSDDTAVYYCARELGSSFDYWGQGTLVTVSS VL: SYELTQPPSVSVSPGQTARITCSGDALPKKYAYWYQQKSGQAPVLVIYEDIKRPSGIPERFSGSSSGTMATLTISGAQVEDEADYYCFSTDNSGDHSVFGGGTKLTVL
Given back: 136
